- System: FRK;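 further: KINOMEscan kinase panel screen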
- protocol_conditions: concentration: 1 μM, replicates: in singlicate; n = 1
Mark FALSE for %Inh values under 5%, and TRUE for everything at or above.

[[record]]
compound = "O=C(c1ccc(-c2cc(-c3c[nH]nc3-c3ccccn3)ccn2)cc1)N1CCOCC1"
label = "FALSE"

[[record]]
compound = "N#Cc1ccc(-c2cc(-c3c[nH]nc3-c3ccccn3)ccn2)cc1"
label = "TRUE"

[[record]]
compound = "NCC(NC(=O)c1cc(-c2cn[nH]c2)c(-c2ccnc3[nH]ccc23)s1)c1ccccc1.O=C(O)C(F)(F)F.O=C(O)C(F)(F)F (centres unmarked)"
label = "FALSE"

[[record]]
compound = "Nc1nccc(-c2c(-c3ccc(F)cc3)ncn2C2CCN(CC(F)(F)F)CC2)n1"
label = "FALSE"

[[record]]
compound = "COc1cc2ncn(-c3cc(OCc4sccc4Cl)c(C(N)=O)s3)c2cc1OC"
label = "TRUE"

[[record]]
compound = "Nc1nc(-c2ccc3c(N)n[nH]c3c2)cc(N2CCCC2)n1"
label = "FALSE"

[[record]]
compound = "NS(=O)(=O)c1cccc(-c2ccc3nccc(-c4cccc(S(N)(=O)=O)c4)c3c2)c1"
label = "FALSE"

[[record]]
compound = "COc1ccc(COc2cc(-n3cnc4ccccc43)sc2C(N)=O)cc1"
label = "FALSE"


Please check the record "Cc1c2ccc(N(C)c3ccnc(Nc4cccc(S(N)(=O)=O)c4)n3)cc2nn1Cc1ccccc1.Cl.Cl" and state if its %Inh is at or above 5%. TRUE

Please check the record COc1ccc(Nc2nccc(N3CCC(NC(=O)Nc4cccc(C(C)=O)c4)C3)n2)cc1 (centres unmarked) and state if its %Inh is at or above 5%. FALSE

Please check the record "Fc1ccc(-c2ncn(CCCN3CCOCC3)c2-c2ccccn2)cc1" and state if its %Inh is at or above 5%. TRUE

Please check the record Cc1nnc(-c2ccc3occ(-c4ccc(C(C)O)cc4)c3c2)o1 (centres unmarked) and state if its %Inh is at or above 5%. TRUE

Please check the record "CCc1nc(-c2cccc(C)c2)c(-c2ccnc(NCc3ccccc3)c2)s1" and state if its %Inh is at or above 5%. FALSE

Please check the record "CN1c2ccc(CNc3ccc(F)cc3)cc2-c2c(cnn2C)S1(=O)=O" and state if its %Inh is at or above 5%. FALSE

Please check the record "COc1ccc(S(=O)(=O)NC2CCN(c3cc(C)nc(Nc4cccc(C#N)c4)n3)CC2)cc1.O=C(O)C(F)(F)F" and state if its %Inh is at or above 5%. FALSE

Please check the record COc1ccc(CNC(=O)NC2CCN(c3ccnc(Nc4ccc(OC)cc4)n3)C2)cc1 (centres unmarked) and state if its %Inh is at or above 5%. FALSE
